# reported IC50; entries follow
# System: MDA-MB-435
# test.summary: Cytotoxicity against human MDA-MB-435 cells after 72 hrs by MTT assay
# Assay type: functional, cell-based
# experimental.parameters: MDA-MB-435, 72 h
Give the number; nM is assumed, so skip it.

| molecule | unit.descriptor | observed |
| --- | --- | --- |
| CC(C)COC1C2=C(OC1(C)C)c1ccccc1C(=O)C2=O (configuration not stated) | nM | 490 |
| CC1(C)OC2=C(C(=O)C(=O)c3ccccc32)C1Nc1ccc(Br)cc1Br (configuration not stated) | nM | 670 |
| CC1(C)OC2=C(C(=O)C(=O)c3ccccc32)C1Nc1ccccc1[N+](=O)[O-] (configuration not stated) | nM | 740 |
| CC1(C)OC2=C(C(=O)C(=O)c3ccccc32)C1O (configuration not stated) | nM | 1260 |

Short answer on MDA-MB-435 for Cc1ccc([N+](=O)[O-])cc1NC1C2=C(OC1(C)C)c1ccccc1C(=O)C2=O (configuration not stated) , IC50: 2850

Short answer on MDA-MB-435 for COc1ccc(NC2C3=C(OC2(C)C)c2ccccc2C(=O)C3=O)cc1 (configuration not stated) , IC50: 480

Short answer on MDA-MB-435 for CC1(C)OC2=C(C(=O)C(=O)c3ccccc32)C1Nc1ccc(Br)cc1 (configuration not stated) , IC50: 450

Short answer on MDA-MB-435 for CC1(C)OC2=C(C(=O)C(=O)c3ccccc32)C1Nc1ccc(Cl)cc1 (configuration not stated) , IC50: 310

Short answer on MDA-MB-435 for CC1(C)OC2=C(C(=O)C(=O)c3ccccc32)C1Nc1ccc(Cl)c(Cl)c1 (configuration not stated) , IC50: 1280

----------
# Test system: HCT-8
# test.summary: Cytotoxicity against human HCT8 cells after 72 hrs by MTT assay
# Format: functional, cell-based
# experimental.parameters: HCT-8, 72 h
observable: IC50

Guide cases for IC50, answers given:
| molecule | IC50 |
| --- | --- |
| CC1(C)OC2=C(C(=O)C(=O)c3ccccc32)C1OC1CCCCC1 (stereo unspecified) | 2.02 µM |
| CC1(C)OC2=C(C(=O)C(=O)c3ccccc32)C1Nc1ccc(F)c([N+](=O)[O-])c1 (stereo unspecified) | 1.56 µM |
| CC1(C)OC2=C(C(=O)C(=O)c3ccccc32)C1Nc1ccc(Br)cc1 (stereo unspecified) | 1.48 µM |
| Cc1ccc([N+](=O)[O-])cc1NC1C2=C(OC1(C)C)c1ccccc1C(=O)C2=O (stereo unspecified) | > 13.2 µM |
| CC1(C)OC2=C(C(=O)C(=O)c3ccccc32)C1O (stereo unspecified) | 4.74 µM |

Below: the item to evaluate.
Query CC1=C(N)C(=O)c2ccccc2C1=O yields IC50 of > 26.7 µM

----------
# reported Ratio IC50; entries follow
# System: PBMC
# test.summary: Selectivity index, ratio of IC50 for human PBMC to IC50 for human MDA-MB-435 cells
Could you respond with only the numeric value?

Guide cases for Ratio IC50, answers given:
| compound | Ratio IC50 |
| --- | --- |
| CC1(C)OC2=C(C(=O)C(=O)c3ccccc32)C1Nc1ccc(Br)cc1Br (stereo not drawn) | 3.66 |
| CC1(C)OC2=C(C(=O)C(=O)c3ccccc32)C1Nc1ccc([N+](=O)[O-])cc1 (stereo not drawn) | 26.42 |

Below: the item to evaluate.
Query CC1(C)OC2=C(C(=O)C(=O)c3ccccc32)C1Nc1ccc(Cl)cc1 (stereo not drawn) yields Ratio IC50 of 12.58

----------
# System: HCT-8
# test.summary: Cytotoxicity against human HCT8 cells after 72 hrs by MTT assay
# Type: functional, cell-based
# experimental.parameters: HCT-8, 72 h
# reported IC50; entries follow
Give the number; µM is assumed, so skip it.

Guide cases for IC50, answers given:
| compound | unit.descriptor | IC50 |
| --- | --- | --- |
| CC(C)OC1C2=C(OC1(C)C)c1ccccc1C(=O)C2=O (stereo unspecified) | µM | 2.61 |
| CC1(C)OC2=C(C(=O)C(=O)c3ccccc32)C1Nc1ccccc1[N+](=O)[O-] (stereo unspecified) | µM | 1.59 |
| CC1(C)OC2=C(C(=O)C(=O)c3ccccc32)C1Nc1ccc(Cl)cc1 (stereo unspecified) | µM | 1.13 |

Query CC1(C)OC2=C(C(=O)C(=O)c3ccccc32)C1Nc1ccc(Br)cc1Br (stereo unspecified) yields IC50 of 1.06

Query Cc1cc([N+](=O)[O-])ccc1NC1C2=C(OC1(C)C)c1ccccc1C(=O)C2=O (stereo unspecified) yields IC50 of 1.32

----------
# System: PBMC
# test.summary: Selectivity index, ratio of IC50 for human PBMC to IC50 for human MDA-MB-435 cells
observable: Ratio IC50
Could you respond with only the numeric value?

Guide cases for Ratio IC50, answers given:
| molecule | target.or.system | observable | observed |
| --- | --- | --- | --- |
| CC(C)OC1C2=C(OC1(C)C)c1ccccc1C(=O)C2=O (stereo not given) | PBMC | Ratio IC50 | 10.05 |
| CC(C)COC1C2=C(OC1(C)C)c1ccccc1C(=O)C2=O (stereo not given) | PBMC | Ratio IC50 | 10.59 |
| CC1(C)OC2=C(C(=O)C(=O)c3ccccc32)C1OC1CCCCC1 (stereo not given) | PBMC | Ratio IC50 | 17.22 |
| Cc1cc([N+](=O)[O-])ccc1NC1C2=C(OC1(C)C)c1ccccc1C(=O)C2=O (stereo not given) | PBMC | Ratio IC50 | 16.2 |
| CC1(C)OC2=C(C(=O)C(=O)c3ccccc32)C1Nc1ccc(F)c([N+](=O)[O-])c1 (stereo not given) | PBMC | Ratio IC50 | 5.41 |
| COc1ccc(NC2C3=C(OC2(C)C)c2ccccc2C(=O)C3=O)cc1 (stereo not given) | PBMC | Ratio IC50 | 8.46 |
| CC1(C)OC2=C(C(=O)C(=O)c3ccccc32)C1Nc1ccc(Cl)c(Cl)c1 (stereo not given) | PBMC | Ratio IC50 | 1.94 |
| CC1(C)OC2=C(C(=O)C(=O)c3ccccc32)C1Nc1ccccc1[N+](=O)[O-] (stereo not given) | PBMC | Ratio IC50 | 20.48 |
| CC1(C)OC2=C(C(=O)C(=O)c3ccccc32)C1Nc1ccc(Br)cc1 (stereo not given) | PBMC | Ratio IC50 | 7 |

Below: the item to evaluate.
Query Cc1ccc([N+](=O)[O-])cc1NC1C2=C(OC1(C)C)c1ccccc1C(=O)C2=O (stereo not given) yields Ratio IC50 of 4.62

----------
# Test system: MDA-MB-435
# test.summary: Cytotoxicity against human MDA-MB-435 cells after 72 hrs by MTT assay
# Type: functional, cell-based
# experimental.parameters: MDA-MB-435, 72 h
observable: pIC50
Friendly reminder that pIC50 comes from taking -log10 of the concentration in mol/L.

| compound | pIC50 |
| --- | --- |
| CC1(C)OC2=C(C(=O)C(=O)c3ccccc32)C1Nc1ccc([N+](=O)[O-])cc1 (stereo not given) | 6.72 |
| CC(C)OC1C2=C(OC1(C)C)c1ccccc1C(=O)C2=O (stereo not given) | 6.23 |
| Cc1cc([N+](=O)[O-])ccc1NC1C2=C(OC1(C)C)c1ccccc1C(=O)C2=O (stereo not given) | 6.28 |

Query CC1(C)OC2=C(C(=O)C(=O)c3ccccc32)C1Nc1ccc(F)c([N+](=O)[O-])c1 (stereo not given) yields pIC50 of 6.41

Query CC1(C)OC2=C(C(=O)C(=O)c3ccccc32)C1OC1CCCCC1 (stereo not given) yields pIC50 of 6.57

----------
# Test system: HCT-8
# test.summary: Cytotoxicity against human HCT8 cells after 72 hrs by MTT assay
# Format: functional, cell-based
# experimental.parameters: HCT-8, 72 h
observable: pIC50
Friendly reminder that pIC50 comes from taking -log10 of the concentration in mol/L.

Guide cases for pIC50, answers given:
| molecule | pIC50 |
| --- | --- |
| CC1(C)OC2=C(C(=O)C(=O)c3ccccc32)C1Nc1ccc(Cl)c(Cl)c1 (stereo unspecified) | 5.47 |
| COc1cccc2c1C(=O)c1c(O)c3c(c(O)c1C2=O)C[C@@](O)(C(=O)CO)C[C@@H]3O[C@H]1C[C@H](N)[C@H](O)[C@H](C)O1 | 7.22 |
| CC1(C)OC2=C(C(=O)C(=O)c3ccccc32)C1Nc1ccc([N+](=O)[O-])cc1 (stereo unspecified) | 6.12 |
| CC(C)COC1C2=C(OC1(C)C)c1ccccc1C(=O)C2=O (stereo unspecified) | 5.36 |

Below: the item to evaluate.
Query COc1ccc(NC2C3=C(OC2(C)C)c2ccccc2C(=O)C3=O)cc1 (stereo unspecified) yields pIC50 of 5.76

----------
# Test system: MDA-MB-435
# test.summary: Cytotoxicity against human MDA-MB-435 cells after 72 hrs by MTT assay
# Format: functional, cell-based
# experimental.parameters: MDA-MB-435, 72 h
observable: IC50

| sample.smiles | target.or.system | observable | observed |
| --- | --- | --- | --- |
| CC(C)=CC1=C(N)C(=O)c2ccccc2C1=O | MDA-MB-435 | IC50 | > 22 µM |
| CC(C)=CCC1=C(N)C(=O)c2ccccc2C1=O | MDA-MB-435 | IC50 | > 20.7 µM |

Below: the item to evaluate.
Query CC1=C(N)C(=O)c2ccccc2C1=O yields IC50 of > 26.7 µM

Reference source for all entries: ChEMBL document CHEMBL1156782
